- System: Sertoli cells (TM4)
- ASSAY REMARKS: cells
- Assay type: cell-based, mouse
- TEST CONDITIONS: Mus musculus, 24 h; read-out: IC50
REPORTED METRIC: IC50 (µM)
Report the value in µM with no unit label.

Recorded IC50, per entry:
Consider the molecule shown here: Oc1ccc(C(c2ccc(O)cc2)(C(F)(F)F)C(F)(F)F)cc1 What is its recorded IC50?
55.4

What value of IC50 has been recorded for this entry: O=S(=O)(c1ccc(O)cc1)c1ccc(O)cc1
211

GET /values?readout=IC50&item= CC(C)(c1ccc(O)cc1)c1ccc(O)cc1
89

Looking for the measured IC50 of CCOP(=S)(OCC)Oc1nc(Cl)c(Cl)cc1Cl , can you help?
212

# query: IC50 of entry C[C@H]1CCCC(=O)CCC/C=C/c2cc(O)cc(O)c2C(=O)O1
3.1

New cases:
Requested field: IC50. Item: CC(C)(c1cc(Br)c(O)c(Br)c1)c1cc(Br)c(O)c(Br)c1
60

---

- Tested on: testicular co-culture: spermatogonial cells (C18-4), Sertoli cells (TM4), Leydig cells (TM3)
- ASSAY REMARKS: cells
- TEST CONDITIONS: Mus musculus, 24 h
pIC50: −log10 of the molar value.
REPORTED METRIC: pIC50

Here are 2 compounds together with their reported answers.
Would you mind telling me what pIC50 value was observed for OB(O)O ?
< 2.30

Record request: pIC50 value, item CC(C)(c1cc(Br)c(O)c(Br)c1)c1cc(Br)c(O)c(Br)c1
4.15

***
Consider the compound O=P1(N(CCCl)CCCl)NCCCO1 (stereo not drawn) [CYC, Cyclophosphamide] and give its measured pIC50.
< 2.30

---

Items are presented alongside their recorded IC50.
- Tested on: testicular co-culture: spermatogonial cells (C18-4), Sertoli cells (TM4), Leydig cells (TM3)
- TEST CONDITIONS: Co-culture, 48 h; highest concentration tested assigned as IC50 where viability did not decrease 50%
Unit µM implied. Number only.

Entry NC(=O)NO has what IC50?
200

May I ask what IC50 has been recorded for [Cl][Cd][Cl] [Cd, Cadmium chloride] ?
4.2

Which IC50 value is on record for Oc1cc(Cl)ccc1Oc1ccc(Cl)cc1Cl ?
76.5

Shift focus to the following entry.
Entry CCCCCOC(=O)c1ccccc1C(=O)OCCCCC : reported IC50 = ?
352

---

- System: Sertoli cells (TM4)
- ASSAY REMARKS: cells
- Type: cell-based, mouse
- TEST CONDITIONS: Mus musculus, 24 h; read-out: IC50
Reported IC50 values are given for each entry in this list.

Suppose we examine the molecule CCCCOC(=O)c1ccccc1C(=O)OCc1ccccc1 [BBP, Benzyl butyl phthalate] ; what IC50 value has been reported?
≥ 400 µM

Using the record for CCCCOC(=O)c1ccccc1C(=O)OCCCC [DBP, Dibutyl phthalate] , report its IC50.
≥ 400 µM

Field request: IC50 | item: CCOC(=O)c1ccccc1C(=O)OCC [DEP, Diethylphthalate]
> 400 µM

Consider now this further molecule.
Form field: reported IC50 of CCCC(CCC)C(=O)[O-].[Na+] [VPA, Valproic acid sodium salt]
> 20000 µM

All values here come from patent US20180371408A1.
